Tested on: Huh-7.5 cells
Experiment: Cell viability assay ([…]-GLO)
Type: cell-based, human
Conditions: 10 μM
assay endpoint: Cell Viability (% @ 10 μM) (%)
Numbers only, in %.

Below: 3 compounds and their reported Cell Viability (% @ 10 μM).
molecule_smiles=Cc1ccc2nc(-c3ccc(NC(=O)c4ccc(NC(=O)c5ccccc5)cc4)cc3)sc2c1S(=O)(=O)O.N test_target="Huh-7.5 cells" assay_endpoint="Cell Viability (% @ 10 μM)" recorded_result=115
molecule_smiles=Cc1ccc2nc(-c3ccc4nc(-c5ccc(NC(=O)c6ccc(Br)cc6)cc5)sc4c3)sc2c1S(=O)(=O)O test_target="Huh-7.5 cells" assay_endpoint="Cell Viability (% @ 10 μM)" recorded_result=113
molecule_smiles=Cc1ccc2nc(-c3ccc4nc(-c5ccc(NCc6ccccc6)cc5)sc4c3)sc2c1S(=O)(=O)O test_target="Huh-7.5 cells" assay_endpoint="Cell Viability (% @ 10 μM)" recorded_result=109

List reported Cell Viability (% @ 10 μM) for each of these compounds:
1. Cc1ccc2nc(-c3ccc4nc(-c5ccc(NC(=O)c6ccccc6C(F)(F)F)cc5)sc4c3)sc2c1S(=O)(=O)O
2. Cc1ccc2nc(-c3ccc(NC(=O)c4ccc(NC(=O)c5ccc(NC(=O)OCC6c7ccccc7-c7ccccc76)cc5)cc4)cc3)sc2c1S(=O)(=O)O.N
3. Cc1ccc2nc(-c3ccc4nc(-c5ccc(NC(=O)c6cccc7ccccc67)cc5)sc4c3)sc2c1S(=O)(=O)O.N
4. Cc1ccc2nc(-c3ccc(NC(=O)c4ccc(NC(=O)OCC5c6ccccc6-c6ccccc65)cc4)cc3)sc2c1S(=O)(=O)O.N

1. 112
2. 113
3. 103
4. 108
